- ASSAY_PROCEDURE: Rodent pharmacokinetic study
- Type: in vivo
- RECORDED_CONDITIONS: Wistar, in vivo; Wister rat/Male, 5 mg/kg Per-Oral vs 5 mg/kg Intravenous
Where a name gives a salt, the structure may show the parent alone.
ATTRIBUTE_MEASURED: bioavailability

>  <MOLECULE>
NCC1CC2CC2N1c1cccnc1 (centres unmarked) [Example 18, fumarate]

>  <ENDPOINT_VALUE>
87%

$$$$
>  <MOLECULE>
NCC1CC2CC2N1c1cncc(Cl)c1.O=C(O)/C=C/C(=O)O (centres unmarked) [Example 13]

>  <ENDPOINT_VALUE>
89%

$$$$

* * *

- ASSAY_PROCEDURE: Rodent pharmacokinetic study
- Format: in vivo
- RECORDED_CONDITIONS: Wistar, plasma; Wister rat/Male, 15 mg/kg, Per-Oral
ATTRIBUTE_MEASURED: AUC(0-t) (ng·h/mL)

>  <COMPOUND>
CN(C)CC1CC2CC2N1c1cncc(Br)c1.Cl (stereo not shown)

>  <ENDPOINT_VALUE>
273

$$$$

* * *

- ASSAY_PROCEDURE: Rodent pharmacokinetic study
- Type: in vivo
- RECORDED_CONDITIONS: Wistar, plasma; Wister rat/Male, 5 mg/kg, Intravenous

>  <COMPOUND>
NCC1CC2CC2N1C(=O)c1ccco1.O=C(O)C(O)C(O)C(=O)O (centres unmarked)

>  <AUC(0-t) (ng·h/mL)>
1420

$$$$
>  <COMPOUND>
CNCC1CC2CC2N1c1cncnc1.O=C(O)/C=C/C(=O)O (centres unmarked)

>  <AUC(0-t) (ng·h/mL)>
2030

$$$$
>  <COMPOUND>
CN(C)CC1CC2CC2N1c1cncc(Br)c1.Cl (centres unmarked)

>  <AUC(0-t) (ng·h/mL)>
901

$$$$
>  <COMPOUND>
CNCC1CC2CC2N1c1ccc(C(F)(F)F)nc1.O=C(O)/C=C/C(=O)O (centres unmarked)

>  <AUC(0-t) (ng·h/mL)>
18000

$$$$
>  <COMPOUND>
NCC1CC2CC2N1c1cncnc1.O=C(O)/C=C/C(=O)O (centres unmarked)

>  <AUC(0-t) (ng·h/mL)>
2250

$$$$

* * *

- TEST_TARGET: Nicotinic Acetylcholine α4β2 Receptor (UniProt P09483+P12390)
- ASSAY_PROCEDURE: Binding assay for human or rat nicotinic acetylcholine α4β2 receptor ([3H]Cytisine displacement)
- RECORDED_CONDITIONS: [3H]Cytisine 2.5 nM; rat brain frontal cortex or recombinant human receptor in CHO cells (not specified which); read-out: Ki
Structures can show the parent of a compound that is named as a salt.
Heads up, the class ranges for Ki are low range: < 40 nM; mid range: ≥ 40 nM and < 100 nM; high range: ≥ 100 nM

>  <COMPOUND>
CNCC1CC2CC2N1c1cncc(Cl)c1.O=C(O)/C=C/C(=O)O (stereo not drawn) [Example 12, fumarate]

>  <CLASS_LABEL>
mid range

$$$$
>  <COMPOUND>
CNCC1CC2CC2N1c1cncc(C(F)(F)F)c1 (stereo not drawn) [Example 30, fumarate]

>  <CLASS_LABEL>
high range

$$$$
>  <COMPOUND>
NCC1CC2CC2N1c1cncc(C(F)(F)F)c1 (stereo not drawn) [Example 28, fumarate]

>  <CLASS_LABEL>
high range

$$$$
>  <COMPOUND>
CN(C)CC1CC2CC2N1c1cccnc1 (stereo not drawn)

>  <CLASS_LABEL>
mid range

$$$$
>  <COMPOUND>
CNCC1CC2CC2N1c1ccc(C(F)(F)F)nc1.O=C(O)/C=C/C(=O)O (stereo not drawn) [Example 23, fumarate]

>  <CLASS_LABEL>
low range

$$$$
>  <COMPOUND>
NCC1CC2CC2N1c1cnc2ccccc2c1 (stereo not drawn) [Example 29, fumarate]

>  <CLASS_LABEL>
high range

$$$$
>  <COMPOUND>
CN(C)CC1CC2CC2N1c1cncc(Br)c1.Cl (stereo not drawn) [Example 1, hydrochloride]

>  <CLASS_LABEL>
low range

$$$$
>  <COMPOUND>
NCC1CC2CC2N1c1cncnc1.O=C(O)/C=C/C(=O)O (stereo not drawn) [Example 22, fumarate]

>  <CLASS_LABEL>
mid range

$$$$
>  <COMPOUND>
NCC1CC2CC2N1C(=O)c1cccnc1 (stereo not drawn)

>  <CLASS_LABEL>
mid range

$$$$
